Origin of measurements: PubChem BioAssay AID1159580

assay: chemical genetic growth profiling, strain panel (AID 1159580);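 further: tested at 20 µM; growth read once vehicle control cultures reached saturation at 30 °C; 1 = growth at the plate median or of vehicle wells; lower values mean less growth of the strain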; details: S. cerevisiae deletion strains, growth OD, locus YJR075W, strain HOC1, active compounds read low
The campaign covered roughly 5,500 compounds. About 2,000 (36%) were called active. Inconclusive results (about 18%) are left out. This is one part of the list.
Field: normalized growth. Provide a value for each of the compounds that follow.
Form field (numeric): enter value without unit.

Could you tell me which normalized growth is on file for COc1cc(OC)c2c(=O)c(-c3ccccc3)c(C)oc2c1OC ?
1.02

Could you tell me which normalized growth is on file for COc1ccc(C(Cl)=C(c2ccc(OC)cc2)c2ccc(OC)cc2)cc1 ?
1.03

Could you tell me which normalized growth is on file for CCn1ccnc1CC1COc2ccccc2O1 (stereo unspecified) ?
1

Could you tell me which normalized growth is on file for CCn1nc(C)c(Br)c1-c1nc(-c2ccc(C(F)(F)F)cc2)no1 ?
1

Could you tell me which normalized growth is on file for CN[C@H](CC(=O)O)C(=O)O ?
0.988

Could you tell me which normalized growth is on file for COc1ccc(OC)c(S(=O)(=O)N2CCc3cc(OC)c(OC)cc3C2C)c1 (stereo unspecified) ?
0.999

Could you tell me which normalized growth is on file for CCSc1nnc(N)s1 ?
0.994

Could you tell me which normalized growth is on file for CC(=O)O[C@@H]1CC2C(C)(C)C=CC(=O)[C@]2(C)C2CC[C@@]3(C)[C@H](c4ccoc4)OC(=O)C4OC43[C@@]21C (stereo partly specified) ?
1.02

Could you tell me which normalized growth is on file for CCC(Cc1c(I)cc(I)c(N)c1I)C(=O)O (stereo unspecified) ?
1.02

Could you tell me which normalized growth is on file for CCOP(=S)(OCC)SCn1c(=O)oc2cc(Cl)ccc21 ?
0.995

Could you tell me which normalized growth is on file for O=[N+]([O-])c1ccc2nsnc2c1 ?
0.55

Could you tell me which normalized growth is on file for CO[C@@]1(NC(=O)CSCC#N)C(=O)N2C(C(=O)O)=C(CSc3nnnn3C)CS[C@@H]21 ?
1

Could you tell me which normalized growth is on file for COC(=O)c1cc([N+](=O)[O-])ccc1NC(C)=O ?
1.03

Could you tell me which normalized growth is on file for O=C(Nc1ccc(C(F)(F)F)cc1)Nc1ccccc1C(=O)O ?
0.979

Could you tell me which normalized growth is on file for CCN(CC)CCOc1ccc2c(c1)C(=O)c1cc(OCCN(CC)CC)ccc1-2 ?
0.998

Could you tell me which normalized growth is on file for C1CNCCN1 ?
1.02

Could you tell me which normalized growth is on file for CC(=O)Nc1cc([N+](=O)[O-])ccc1-n1cc(C)c(C(F)(F)F)n1 ?
0.973

Could you tell me which normalized growth is on file for CN1[C@@H](CC(=O)c2ccccc2)CCC[C@H]1C[C@H](O)c1ccccc1 ?
1.01

Could you tell me which normalized growth is on file for CN(C)C(N)=NCCC[C@H](N)C(=O)O ?
1.01

Could you tell me which normalized growth is on file for CCCCCCCC/C=C\CCCCCCCC(=O)NCCO ?
1

Could you tell me which normalized growth is on file for CCSC(N)=Nc1ccc(C(F)(F)F)cc1 ?
1.01

Could you tell me which normalized growth is on file for Cc1occc(=O)c1/C=C/O ?
0.995

Could you tell me which normalized growth is on file for O=C(O)c1ccccc1Nc1cccc(OCc2ccc3ccccc3n2)c1 ?
1.01

Could you tell me which normalized growth is on file for CC1(C)C(=O)C=CC2(C)C3CCC4(C)C(c5ccoc5)CC5OC54C3C(O)CC12 (stereo unspecified) ?
0.981

Could you tell me which normalized growth is on file for CC(=O)Nc1cc([As](=O)(O)O)ccc1O ?
0.983

Could you tell me which normalized growth is on file for COc1ccc(-c2c(C)nc3ccc(Cl)cc3c2-c2ccccc2)cc1OC ?
0.819

Could you tell me which normalized growth is on file for CCCc1occc(=O)c1/C=C/O ?
0.945

Could you tell me which normalized growth is on file for NC1C=CC=C(C(=O)O)C1 (stereo unspecified) ?
0.994

Could you tell me which normalized growth is on file for NCC(CC(=O)O)c1ccc(Cl)s1 (stereo unspecified) ?
1.06

Could you tell me which normalized growth is on file for NC(=S)N/N=C\c1cc(F)cc(F)c1 ?
1.02

Could you tell me which normalized growth is on file for Cc1cccc(C(=O)NCN2CCN(c3ccccc3C#N)CC2)c1 ?
0.978

Could you tell me which normalized growth is on file for Fc1cccc(Cl)c1CSc1nncn1-c1ccc(OCc2ccccc2)cc1 ?
0.988

Could you tell me which normalized growth is on file for O=[N+]([O-])c1cc([As](=O)(O)O)ccc1O ?
1

Could you tell me which normalized growth is on file for CCCc1cc(Br)c(-n2cccc2)c(Br)c1 ?
0.994

Could you tell me which normalized growth is on file for Cc1[nH]ncc1-c1ccccc1 ?
1.02

Could you tell me which normalized growth is on file for O=S(=O)(O)C1CCNCC1 ?
1.01

Could you tell me which normalized growth is on file for CC(C)(C)NS(=O)(=O)NC(C)(C)C ?
1.02

Could you tell me which normalized growth is on file for CCCCC1(COC(=O)CCC(=O)O)C(=O)N(c2ccccc2)N(c2ccccc2)C1=O ?
1.01

Could you tell me which normalized growth is on file for CCCC(C)C1(CC)C(=O)N=C(S)NC1=O (stereo unspecified) ?
1

Could you tell me which normalized growth is on file for Nc1nc(Cl)nc2c1ncn2[C@@H]1O[C@H](COP(=O)(O)OP(=O)(O)OP(=O)(O)O)[C@H](O)C1O (stereo partly specified) ?
1

Could you tell me which normalized growth is on file for CCCC(C)C1(CC)C(=O)NC(=O)NC1=O (stereo unspecified) ?
1.04

Could you tell me which normalized growth is on file for CN(C)CCOC(C)(c1ccccc1)c1ccccn1 (stereo unspecified) ?
0.974

Could you tell me which normalized growth is on file for O=C(N/N=C\c1cccs1)c1ccccc1CO ?
0.995

Could you tell me which normalized growth is on file for NC(=S)N/N=C\c1cccs1 ?
0.829

Could you tell me which normalized growth is on file for O=[N+]([O-])c1ccc(SC2=NCCN2)c(Cl)c1 ?
0.952

Could you tell me which normalized growth is on file for CC1(C)CC2C1(O)CCC1(C)C=CC(O)C21CO (stereo unspecified) ?
0.988

Could you tell me which normalized growth is on file for NC(=O)c1ccccc1N1CCCCC1 ?
0.965

Could you tell me which normalized growth is on file for Clc1cc(Cl)cc(-n2cccc2)c1 ?
0.981

Could you tell me which normalized growth is on file for CC(C)(C)C(=O)NC(=S)Nc1cccc(C(F)(F)F)c1 ?
0.977

Could you tell me which normalized growth is on file for NC(=S)N/N=C\c1ccccc1 ?
1.04

Could you tell me which normalized growth is on file for CC(=O)NCCCCCC(=O)O ?
1.02
